B1: Twister Ribozyme (parent)
chain: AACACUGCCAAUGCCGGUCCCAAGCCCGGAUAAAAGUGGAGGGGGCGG

variants of: B1; test: self-cleavage, relative activity (ratio to wild type); higher = more cleavage; co-transcriptional
Listed variants paired with reported self-cleavage
// no unit, no text: just the number

MUTATION STRING: C3U A40G
self-cleavage: 0.0544

q: Tell me the measured self-cleavage of A22G U31G , please.
a: 0.263

q: Proceed to C27A G42A
a: 0.0939

q: Proceed to G7A C27G
a: 0.0632
